- System: NCI-H23
- experimental-details: relative viability (nuclei count vs DMSO), 5 days (fraction); higher = more cells survive
- protocol-conditions: first compound 0.2 µM
Threshold check on relative viability: strictly below 0.4 is t; on or above 0.4 is f.

compound	target-entity	group-label
COCC1(CO)C(=O)C2CCN1CC2 (stereo unspecified) [PRIMA-1MET] + CC(=O)Nc1cccc(-n2c(=O)n(C3CC3)c(=O)c3c(Nc4ccc(I)cc4F)n(C)c(=O)c(C)c32)c1 [Trametinib] (partner 0.02 µM)	NCI-H23	t
COCC1(CO)C(=O)C2CCN1CC2 (stereo unspecified) [PRIMA-1MET] + C[C@@H](Oc1cc(-c2cnn(C3CCNCC3)c2)cnc1N)c1c(Cl)ccc(F)c1Cl [Crizotinib] (partner 1 µM)	NCI-H23	f
COCC1(CO)C(=O)C2CCN1CC2 (stereo unspecified) [PRIMA-1MET] + CS(=O)(=O)N1CCN(Cc2cc3nc(-c4cccc5[nH]ncc45)nc(N4CCOCC4)c3s2)CC1 [Pictilisib] (partner 1 µM)	NCI-H23	t
COCC1(CO)C(=O)C2CCN1CC2 (stereo unspecified) [PRIMA-1MET] + COc1cc2c(Oc3ccc(NC(=O)C4(C(=O)Nc5ccc(F)cc5)CC4)cc3F)ccnc2cc1OCCCN1CCOCC1 [Foretinib] (partner 0.25 µM)	NCI-H23	f
COCC1(CO)C(=O)C2CCN1CC2 (stereo unspecified) [PRIMA-1MET] + CS(=O)(=O)CCNCc1ccc(-c2ccc3ncnc(Nc4ccc(OCc5cccc(F)c5)c(Cl)c4)c3c2)o1 [Lapatinib] (partner 2 µM)	NCI-H23	f
COCC1(CO)C(=O)C2CCN1CC2 (stereo unspecified) [PRIMA-1MET] + Nc1nc2[nH]cc(CCc3ccc(C(=O)N[C@@H](CCC(=O)O)C(=O)O)cc3)c2c(=O)[nH]1 [Pemetrexed] (partner 0.2 µM)	NCI-H23	f

###

- System: LC-2-ad
- experimental-details: relative viability (nuclei count vs DMSO), 5 days (fraction); higher = more cells survive
- protocol-conditions: first compound 0.1 µM
# maps each entry to its relative viability
readout-name: relative viability

compound	readout-name	result
CCN(CC)CCCCNc1ncc2cc(-c3cc(OC)cc(OC)c3)c(NC(=O)NC(C)(C)C)nc2n1 + C[C@@H](Oc1cc(-c2cnn(C3CCNCC3)c2)cnc1N)c1c(Cl)ccc(F)c1Cl [Crizotinib] (partner 1 µM)	relative viability	0.49
O=c1cc(N2CCOCC2)oc2c(-c3cccc4c3sc3ccccc34)cccc12 + Cc1nc(Nc2ncc(C(=O)Nc3c(C)cccc3Cl)s2)cc(N2CCN(CCO)CC2)n1 [Dasatinib] (partner 0.075 µM)	relative viability	0.775
O=c1cc(N2CCOCC2)oc2c(-c3cccc4c3sc3ccccc34)cccc12 + Cc1cc(Nc2cc(N3CCN(C)CC3)nc(Sc3ccc(NC(=O)C4CC4)cc3)n2)n[nH]1 [Tozasertib] (partner 0.1 µM)	relative viability	0.478
O=c1cc(N2CCOCC2)oc2c(-c3cccc4c3sc3ccccc34)cccc12 + Cc1nc(NC(=O)N2CCC[C@H]2C(N)=O)sc1-c1ccnc(C(C)(C)C(F)(F)F)c1 [Alpelisib] (partner 2 µM)	relative viability	0.976
O=c1cc(N2CCOCC2)oc2c(-c3cccc4c3sc3ccccc34)cccc12 + CC(=O)Nc1cccc(-n2c(=O)n(C3CC3)c(=O)c3c(Nc4ccc(I)cc4F)n(C)c(=O)c(C)c32)c1 [Trametinib] (partner 0.02 µM)	relative viability	0.965

###

- Tested on: EMC-BAC-2
- experimental-details: relative viability (nuclei count vs DMSO), 5 days (fraction); higher = more cells survive
- protocol-conditions: first compound 0.2 µM

compound	relative viability
COCC1(CO)C(=O)C2CCN1CC2 (stereo not drawn) [PRIMA-1MET] + Nc1nc2[nH]cc(CCc3ccc(C(=O)N[C@@H](CCC(=O)O)C(=O)O)cc3)c2c(=O)[nH]1 [Pemetrexed] (partner 0.2 µM)	0.549
COCC1(CO)C(=O)C2CCN1CC2 (stereo not drawn) [PRIMA-1MET] + O=C(CCCCCCC(=O)Nc1ccccc1)NO [Vorinostat] (partner 1 µM)	0.582
COCC1(CO)C(=O)C2CCN1CC2 (stereo not drawn) [PRIMA-1MET] + Nc1ncn([C@H]2C[C@H](O)[C@@H](CO)O2)c(=O)n1 [Decitabine] (partner 2 µM)	1

###

# maps each entry to its relative viability
- Test system: PC-14
- experimental-details: relative viability (nuclei count vs DMSO), 5 days (fraction); higher = more cells survive
- protocol-conditions: first compound 6.325 µM

compound	relative viability
COCC1(CO)C(=O)C2CCN1CC2 (centres undefined) [PRIMA-1MET] + CC(=O)Nc1cccc(-n2c(=O)n(C3CC3)c(=O)c3c(Nc4ccc(I)cc4F)n(C)c(=O)c(C)c32)c1 [Trametinib] (partner 0.02 µM)	0.693
COCC1(CO)C(=O)C2CCN1CC2 (centres undefined) [PRIMA-1MET] + CC1(C)CCC(c2ccc(Cl)cc2)=C(CN2CCN(c3ccc(C(=O)NS(=O)(=O)c4ccc(N[C@H](CCN5CCOCC5)CSc5ccccc5)c(S(=O)(=O)C(F)(F)F)c4)cc3)CC2)C1 [Navitoclax] (partner 0.5 µM)	1.03
COCC1(CO)C(=O)C2CCN1CC2 (centres undefined) [PRIMA-1MET] + Cc1nc(NC(=O)N2CCC[C@H]2C(N)=O)sc1-c1ccnc(C(C)(C)C(F)(F)F)c1 [Alpelisib] (partner 2 µM)	1.07
COCC1(CO)C(=O)C2CCN1CC2 (centres undefined) [PRIMA-1MET] + O=C(c1cc(Cc2n[nH]c(=O)c3ccccc23)ccc1F)N1CCN(C(=O)C2CC2)CC1 [Olaparib] (partner 8 µM)	0.275

###

- System: NCI-H441
- experimental-details: relative viability (nuclei count vs DMSO), 5 days (fraction); higher = more cells survive
- protocol-conditions: first compound 0.6325 µM
# maps each entry to its relative viability
readout-name: relative viability

compound	result
COCC1(CO)C(=O)C2CCN1CC2 (stereo not drawn) [PRIMA-1MET] + Cc1nc(Nc2ncc(C(=O)Nc3c(C)cccc3Cl)s2)cc(N2CCN(CCO)CC2)n1 [Dasatinib] (partner 0.075 µM)	0.728
COCC1(CO)C(=O)C2CCN1CC2 (stereo not drawn) [PRIMA-1MET] + COc1cccc2cc(-c3nc([C@H]4CC[C@H](C(=O)O)CC4)n4ncnc(N)c34)[nH]c12 [OSI-027] (partner 0.5 µM)	0.629
COCC1(CO)C(=O)C2CCN1CC2 (stereo not drawn) [PRIMA-1MET] + C[C@]1(O)C[C@@H](c2nc(-c3ccc4ccc(-c5ccccc5)nc4c3)c3c(N)nccn32)C1 [Linsitinib] (partner 1 µM)	0.517
COCC1(CO)C(=O)C2CCN1CC2 (stereo not drawn) [PRIMA-1MET] + CS(=O)(=O)N1CCN(Cc2cc3nc(-c4cccc5[nH]ncc45)nc(N4CCOCC4)c3s2)CC1 [Pictilisib] (partner 1 µM)	0.325
COCC1(CO)C(=O)C2CCN1CC2 (stereo not drawn) [PRIMA-1MET] + CC(C)C[C@H](NC(=O)[C@H](Cc1ccccc1)NC(=O)c1cnccn1)B(O)O [Bortezomib] (partner 0.002 µM)	0.407
COCC1(CO)C(=O)C2CCN1CC2 (stereo not drawn) [PRIMA-1MET] + C[C@@H](Oc1cc(-c2cnn(C3CCNCC3)c2)cnc1N)c1c(Cl)ccc(F)c1Cl [Crizotinib] (partner 1 µM)	0.78
COCC1(CO)C(=O)C2CCN1CC2 (stereo not drawn) [PRIMA-1MET] + Nc1ncn([C@H]2C[C@H](O)[C@@H](CO)O2)c(=O)n1 [Decitabine] (partner 2 µM)	0.21
COCC1(CO)C(=O)C2CCN1CC2 (stereo not drawn) [PRIMA-1MET] + Cc1cc(Nc2cc(N3CCN(C)CC3)nc(Sc3ccc(NC(=O)C4CC4)cc3)n2)n[nH]1 [Tozasertib] (partner 0.1 µM)	0.667

###

# maps each entry to its relative viability
- System: NCI-H2170
- experimental-details: relative viability (nuclei count vs DMSO), 5 days (fraction); higher = more cells survive
- protocol-conditions: first compound 0.08 µM

compound	target-entity	relative viability
COc1nc(C)cnc1NS(=O)(=O)c1cccnc1-c1ccc(-c2nnco2)cc1 [Zibotentan] + CC(=O)c1c(C)c2cnc(Nc3ccc(N4CCNCC4)cn3)nc2n(C2CCCC2)c1=O [Palbociclib] (partner 0.5 µM)	NCI-H2170	0.389
COc1nc(C)cnc1NS(=O)(=O)c1cccnc1-c1ccc(-c2nnco2)cc1 [Zibotentan] + Cc1nc(Nc2ncc(C(=O)Nc3c(C)cccc3Cl)s2)cc(N2CCN(CCO)CC2)n1 [Dasatinib] (partner 0.075 µM)	NCI-H2170	0.59

###

- Tested on: NCI-H322M
- experimental-details: relative viability (nuclei count vs DMSO), 5 days (fraction); higher = more cells survive
- protocol-conditions: first compound 1 µM

compound	relative viability
O=c1cc(N2CCOCC2)oc2c(-c3cccc4c3sc3ccccc34)cccc12 + C[C@]1(O)C[C@@H](c2nc(-c3ccc4ccc(-c5ccccc5)nc4c3)c3c(N)nccn32)C1 [Linsitinib] (partner 1 µM)	0.83
O=c1cc(N2CCOCC2)oc2c(-c3cccc4c3sc3ccccc34)cccc12 + Cc1nc(Nc2ncc(C(=O)Nc3c(C)cccc3Cl)s2)cc(N2CCN(CCO)CC2)n1 [Dasatinib] (partner 0.075 µM)	0.224
CCN(CC)CCCCNc1ncc2cc(-c3cc(OC)cc(OC)c3)c(NC(=O)NC(C)(C)C)nc2n1 + CC(=O)Nc1cccc(-n2c(=O)n(C3CC3)c(=O)c3c(Nc4ccc(I)cc4F)n(C)c(=O)c(C)c32)c1 [Trametinib] (partner 0.02 µM)	0.488
